# Lookup of reported Population Mitochondria Different-Phenotype (%) keyed by entry
System: HEK-293T
method.summary: Multiplex assay against HEK293T
Format: toxicity, cell-based
condition.summary: human, 24 h, 1 µM, compound concentration 1 uM, replicate 1
Return type: number; implicit unit %.

## Input Need Population Mitochondria Different-Phenotype (%) of CN1CCN2c3ccccc3Cc3ccccc3C2C1.Cl (stereo not drawn) [MIANSERIN HYDROCHLORIDE] , thanks.
## Output 21

## Input Need Population Mitochondria Different-Phenotype (%), item "COc1ccc2c(c1OCc1ccccc1)C[C@@H](C(=O)O)N(C(=O)C(c1ccccc1)c1ccccc1)C2"
## Output 24

## Input Given the compound "CC(C)(O)C(=O)N1CCN(c2ccc(C(F)(F)F)c(C3=C(c4c[nH]c5ccccc45)C(=O)NC3=O)c2)CC1" , what is its reported Population Mitochondria Different-Phenotype (%)?
## Output 32

## Input Recorded Population Mitochondria Different-Phenotype (%) for "Cc1cc(NC(=O)NCCN2CCC(O)(Cc3ccccc3)CC2)c2ccccc2n1" , please?
## Output 24

## Input # get_value(readout='Population Mitochondria Different-Phenotype (%)', item= "O=c1nc2[nH]c3ccccc3nc-2c(=O)[nH]1" )
## Output 24

## Input Return reported Population Mitochondria Different-Phenotype (%); argument: "CC(C)(C)c1ccc(CSc2cnn(C(C)(C)C)c(=O)c2Cl)cc1"
## Output 37

## Input Entry "COc1cc(OC2CCN(C(C)=O)CC2)ccc1C(=O)N1CCC(N2C(=O)OCc3ccccc32)CC1" has what Population Mitochondria Different-Phenotype (%)?
## Output 25

## Input If you can, please state the reported Population Mitochondria Different-Phenotype (%) value of CN(C)C/C=C/C(=O)Nc1ccc(C(=O)N2CCCC(Nc3ncc(Cl)c(-c4c[nH]c5ccccc45)n3)C2)cc1 (stereo not drawn) .
## Output 85

----------
Test system: HEK-293T
method.summary: Multiplex assay against HEK293T
Type: toxicity, cell-based
condition.summary: human, 48 h, 1 µM, compound concentration 1 uM, replicate 1
metric: Population Healthy Nuclei (%)
// return numeric value only (unit: %, not printed)

See these solved cases before continuing.
compound: OCCCNc1cc(-c2ccnc(Nc3cccc(Cl)c3)n2)ccn1
reported.measurement: 51
--
compound: COc1cc2nc(N3CCN(C(=O)COc4c(OC)cccc4C(C)C)CC3)nc(N)c2cc1OC.Cl.Cl
reported.measurement: 76
--
compound: COc1cc(Nc2ncc3c(n2)-c2ccc(Cl)cc2C(c2c(F)cccc2OC)=NC3)ccc1C(=O)O
reported.measurement: 79

Next item in the queue.
## Input Population Healthy Nuclei (%) for "Cc1c(Cc2ccc3ccccc3n2)c2cc(F)ccc2n1CC(=O)O" ?
## Output 78

----------
Some molecules, each annotated with its measured Total Cell Count.
System: U2OS
method.summary: Multiplex assay against U2OS
Type: toxicity, cell-based
condition.summary: human, 48 h, 10 µM, compound concentration 10 uM, replicate 2
Non-standard residues stand in square brackets, D forms with d. Residues, ends and D or L forms follow the SMILES beside them.

## Input Given "CN(C)C(=O)Cn1cc(-c2ccc(-c3nnc4ccccn34)cc2)cn1" , state its recorded Total Cell Count.
## Output 284

## Input What value of Total Cell Count has been reported for the following molecule? "Cc1c(Cc2ccc3ccccc3n2)c2cc(F)ccc2n1CC(=O)O"
## Output 204

## Input Item "Cc1cc(O)c(-c2ccc([C@@H](C)CN(C)C)cc2)c2c1[nH]c(=O)c1sccc12" has what recorded Total Cell Count?
## Output 120

## Input May I ask what Total Cell Count has been recorded for "O=C(Nc1cc(-c2ccccc2)nn1-c1ccccc1F)c1ccc([N+](=O)[O-])cc1" ?
## Output 226

## Input Could you share which Total Cell Count value was measured for "COc1cc(C(=O)N2CC[C@@H](O)[C@@H](N)C2)cc2nc(-c3cc4ccccc4n3CC3CC3)n(C)c12.Cl" ?
## Output 131

## Input Need Total Cell Count, item "Cc1nn(C)c2nc(NNC(=O)Nc3cc(Cl)nc(Cl)c3)cc(C(C)C)c12"
## Output 115

## Input Field request: Total Cell Count | item: "COc1ccc2[nH]c(I)c(CCNC(C)=O)c2c1"
## Output 209

## Input Quick check: Total Cell Count of "C[C@H](NC(=O)CNC(=O)c1cccc(Cl)c1)c1ccccc1" ?
## Output 279

## Input Query: Total Cell Count; subject: "Nc1nc(CC(=O)Nc2ccc(CCNC[C@H](O)c3ccccc3)cc2)cs1"
## Output 232

## Input Find the recorded Total Cell Count belonging to "COc1ccc2c(c1OCc1ccccc1)C[C@@H](C(=O)O)N(C(=O)C(c1ccccc1)c1ccccc1)C2" and report it.
## Output 163

## Input Bench note: what Total Cell Count did COc1cc2nc(N3CCN(C(=O)c4ccco4)CC3)nc(N)c2cc1OC.Cl [PRAZOSIN HYDROCHLORIDE] show?
## Output 208

## Input Could you share which Total Cell Count value was measured for "COCCn1c(C)c(C)s/c1=N\C(=O)C1C(C)(C)C1(C)C" ?
## Output 206

## Input Field request: Total Cell Count | item: COCCCN1CCC(NC(=O)c2cc(Cl)c(N)c3c2OCC3)CC1 [PRUCALOPRIDE]
## Output 245

## Input Which value of Total Cell Count has been reported for CN(C)C/C=C/C(=O)Nc1ccc(C(=O)N2CCCC(Nc3ncc(Cl)c(-c4c[nH]c5ccccc45)n3)C2)cc1 (stereo unspecified) in the records?
## Output 157

## Input Which Total Cell Count value is on record for CC(C)C[C@@H]1NC(=O)[C@@H](C(C)C)NC(=O)[C@@H]2CCCN2C(=O)[C@@H](CC(=O)O)NC(=O)[C@@H](Cc2c[nH]c3ccccc23)NC1=O [BQ-123] (cyclo(L[dW][dD]P[dV])) ?
## Output 131

## Input Endpoint output: Total Cell Count of Cc1ccc(OCC(O)C(C)NC(C)C)c2c1CCC2.Cl (stereo unspecified) . Value?
## Output 246

## Input Which value of Total Cell Count has been reported for "O=c1ccc2ccc(OCCCCN3CCN(c4cccc5sccc45)CC3)cc2[nH]1" in the records?
## Output 105

Just for reference, ChEMBL document CHEMBL5058577 is where these values come from.
